# ASSAYED TARGET: Serine/threonine-protein kinase PAK 6 (Homo sapiens)
# CONDITION INFO: at 1 µM
QUANTITY KIND: residual activity (%)

• O=C1c2ccccc2-c2nc3nnnn3nc21 = 112
• COc1ccc2c(c1)/C(=C/c1cnc[nH]1)C(=O)N2 = 98
• C[S+]([O-])c1ccc(-c2nc(-c3ccc(F)cc3)c(-c3ccncc3)[nH]2)cc1 (stereo unspecified) = 110
• CC(C)[C@H](CO)Nc1nc(Nc2cccc(Cl)c2)c2ncn(C(C)C)c2n1 = 57
• CC(C)(C)c1cc(C=C(C#N)C#N)cc(Br)c1O = 111
• COc1ccc2c(c[n+](C)c3c4cc5c(cc4ccc23)OCO5)c1OC = 99

---

# ASSAYED TARGET: Ribosomal protein S6 kinase beta-1 (Homo sapiens) (UniProt P23443)
# Sequence (P23443 whole entry, looked up): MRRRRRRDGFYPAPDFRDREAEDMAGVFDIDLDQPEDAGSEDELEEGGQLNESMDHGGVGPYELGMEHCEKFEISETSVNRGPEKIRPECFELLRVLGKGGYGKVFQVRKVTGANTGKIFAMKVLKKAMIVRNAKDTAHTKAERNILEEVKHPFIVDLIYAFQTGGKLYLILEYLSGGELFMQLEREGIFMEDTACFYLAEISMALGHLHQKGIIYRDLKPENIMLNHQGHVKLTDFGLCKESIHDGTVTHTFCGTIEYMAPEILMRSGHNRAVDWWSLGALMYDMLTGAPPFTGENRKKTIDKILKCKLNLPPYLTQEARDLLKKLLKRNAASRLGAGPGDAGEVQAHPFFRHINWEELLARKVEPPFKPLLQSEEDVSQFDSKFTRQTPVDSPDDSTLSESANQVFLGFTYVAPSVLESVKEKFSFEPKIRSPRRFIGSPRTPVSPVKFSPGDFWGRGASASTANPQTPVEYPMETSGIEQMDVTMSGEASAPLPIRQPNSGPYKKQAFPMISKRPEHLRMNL
# CONDITION INFO: at 1 µM
Entries and their measured residual activity follow.
QUANTITY KIND: residual activity (%)

* O=C1Nc2ccc3ncsc3c2/C1=C/c1c[nH]cn1 | 46
* COc1ccc2c(c[n+](C)c3c4cc5c(cc4ccc23)OCO5)c1OC | 130
* O=c1[nH]c2ccccc2n1C1CCN(Cc2ccc(-c3nc4cc5[nH]cnc5cc4nc3-c3ccccc3)cc2)CC1 | 70
* N/C(=N\[N+](=O)[O-])N/N=C\c1ccc(-c2cccc([N+](=O)[O-])c2)o1 | 85
* COc1cc(OC)c(/C=C2\C(=O)Nc3ccccc32)c(OC)c1 | 124
* CC(C)(C)c1cc(C=C(C#N)C#N)cc(Br)c1O | 110
* O=C1NC(=O)c2c1c1c3ccccc3n3c1c1c2c2ccccc2n1C1CCC3O1 | 51
* O=[N+]([O-])/C=C/c1ccc2c(c1)OCO2 | 137
* COC(=O)[C@@]1(O)C[C@H]2O[C@]1(C)n1c3ccccc3c3c4c(c5c6ccccc6n2c5c31)C(=O)NC4 | 6

---

# ASSAYED TARGET: Macrophage colony-stimulating factor 1 receptor (Homo sapiens) (UniProt P07333)
# Sequence (P07333 whole entry): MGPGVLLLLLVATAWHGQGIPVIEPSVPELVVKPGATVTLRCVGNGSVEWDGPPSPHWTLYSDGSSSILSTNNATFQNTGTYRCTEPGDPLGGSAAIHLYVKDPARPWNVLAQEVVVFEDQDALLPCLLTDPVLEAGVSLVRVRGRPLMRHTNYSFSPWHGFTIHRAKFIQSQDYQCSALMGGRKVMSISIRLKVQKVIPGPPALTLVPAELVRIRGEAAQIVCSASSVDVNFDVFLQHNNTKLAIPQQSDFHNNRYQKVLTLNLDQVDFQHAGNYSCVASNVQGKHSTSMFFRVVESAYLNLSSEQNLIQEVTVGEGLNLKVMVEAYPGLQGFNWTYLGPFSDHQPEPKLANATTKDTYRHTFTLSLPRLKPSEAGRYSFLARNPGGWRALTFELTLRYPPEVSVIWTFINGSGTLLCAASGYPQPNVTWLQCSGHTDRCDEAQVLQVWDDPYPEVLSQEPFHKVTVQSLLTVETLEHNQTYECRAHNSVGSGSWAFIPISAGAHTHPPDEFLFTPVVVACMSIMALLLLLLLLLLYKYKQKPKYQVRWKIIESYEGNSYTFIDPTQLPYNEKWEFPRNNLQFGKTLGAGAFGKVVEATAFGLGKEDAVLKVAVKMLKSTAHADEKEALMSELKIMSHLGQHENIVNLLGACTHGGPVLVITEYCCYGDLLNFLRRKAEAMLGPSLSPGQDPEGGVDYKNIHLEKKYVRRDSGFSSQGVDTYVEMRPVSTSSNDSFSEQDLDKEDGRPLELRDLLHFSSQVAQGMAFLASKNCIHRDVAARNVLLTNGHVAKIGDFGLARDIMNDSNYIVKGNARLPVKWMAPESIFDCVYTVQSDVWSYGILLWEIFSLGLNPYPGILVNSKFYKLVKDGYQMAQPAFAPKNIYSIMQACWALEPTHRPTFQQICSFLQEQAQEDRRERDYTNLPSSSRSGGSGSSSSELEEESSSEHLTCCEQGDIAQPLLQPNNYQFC
# CONDITION INFO: at 10 µM
Classify: Criterion met when residual activity is strictly less than 50%; Criterion not met when residual activity is not.

- COc1cc2ncnc(Nc3ccc(OCc4ccccc4)cc3)c2cc1OC: Criterion met
- CCn1cnc2c(Nc3cccc(Cl)c3)nc(N[C@@H]3CCCC[C@@H]3N)nc21: Criterion met
- C[S+]([O-])c1ccc(-c2nc(-c3ccc(F)cc3)c(-c3ccncc3)[nH]2)cc1 (configuration not stated): Criterion not met
- O=C1Nc2ccc3ncsc3c2/C1=C/c1c[nH]cn1: Criterion met
- COc1cc(OC)c(/C=C2\C(=O)Nc3ccccc32)c(OC)c1: Criterion not met
- CCc1nc(-c2ccc(OC)cc2)[nH]c1-c1ccncc1: Criterion not met
- N/C(=N\[N+](=O)[O-])N/N=C\c1ccc(-c2cccc([N+](=O)[O-])c2)o1: Criterion not met

---

# ASSAYED TARGET: Tyrosine-protein kinase Lck (Homo sapiens) (UniProt P06239)
# Sequence (P06239 2-509 limits assumed): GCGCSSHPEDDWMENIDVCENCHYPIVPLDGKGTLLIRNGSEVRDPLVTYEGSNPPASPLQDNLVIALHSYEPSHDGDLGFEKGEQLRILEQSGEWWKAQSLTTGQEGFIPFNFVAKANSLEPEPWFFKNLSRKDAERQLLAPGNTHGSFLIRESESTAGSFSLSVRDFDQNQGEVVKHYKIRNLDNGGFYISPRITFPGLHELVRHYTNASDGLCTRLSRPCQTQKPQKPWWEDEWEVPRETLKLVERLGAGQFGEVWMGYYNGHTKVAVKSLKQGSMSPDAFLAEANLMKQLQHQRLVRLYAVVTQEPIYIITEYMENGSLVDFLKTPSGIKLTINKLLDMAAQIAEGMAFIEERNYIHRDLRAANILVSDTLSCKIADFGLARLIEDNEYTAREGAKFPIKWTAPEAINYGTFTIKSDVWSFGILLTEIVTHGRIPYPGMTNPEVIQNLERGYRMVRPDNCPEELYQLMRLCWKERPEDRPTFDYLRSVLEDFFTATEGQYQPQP
# CONDITION INFO: at 10 µM
Documented residual activity across a set of compounds
QUANTITY KIND: residual activity (%)

* c1cc(-c2cnn3cc(-c4ccc(OCCN5CCCCC5)cc4)cnc23)ccn1 | 12
* CC(C)(C)c1cc(C=C(C#N)C#N)cc(Br)c1O | 49
* N/C(=N\[N+](=O)[O-])N/N=C\c1ccc(-c2cccc([N+](=O)[O-])c2)o1 | 93
* CC(C)[C@H](CO)Nc1nc(Nc2cccc(Cl)c2)c2ncn(C(C)C)c2n1 | 14
* O=c1[nH]c2ccccc2n1C1CCN(Cc2ccc(-c3nc4cc5[nH]cnc5cc4nc3-c3ccccc3)cc2)CC1 | 125

Measured values drawn from ChEMBL document CHEMBL2218924 for this set.
